target: COVID-19 WT Mpro (Severe acute respiratory syndrome coronavirus 2); construct: The C-His6-tagged COVID-19 WT Mpro (NC_045512); His6 (C); host or cells: E. coli; test: biochemical; settings: WT Mpro 25 nM, substrate 25 μM, 30 min pre-incubation; several values in a cell = repeat determinations
quantity: log10(IC50) (log10 of the value in nM)

INSERT INTO measurements (molecule, targetdesc, quantity, observedvalue) VALUES
  ('CC(C)(C)OC(=O)N1C2CCC1CC(C(=O)N[C@H](C(=O)N1C[C@H]3[C@@H]([C@H]1C(=O)N[C@H](C#N)C[C@@H]1CCNC1=O)C3(C)C)C(C)(C)C)C2 (some centres unmarked)', 'COVID-19 WT Mpro (Severe acute respiratory syndrome coronavirus 2)', 'log10(IC50)', 2.85),
  ('CN(C(=O)OC(C)(C)C)C(C)(C)C(=O)N[C@H](C(=O)N1C[C@H]2[C@@H]([C@H]1C(=O)N[C@H](C#N)C[C@@H]1CCNC1=O)C2(C)C)C(C)(C)C', 'COVID-19 WT Mpro (Severe acute respiratory syndrome coronavirus 2)', 'log10(IC50)', 3.99),
  ('CC(C)(C)[C@H](NC(=O)N1CCCCC1)C(=O)N1C[C@H]2[C@@H]([C@H]1C(=O)N[C@H](C#N)C[C@@H]1CCNC1=O)C2(C)C', 'COVID-19 WT Mpro (Severe acute respiratory syndrome coronavirus 2)', 'log10(IC50)', 3.02),
  ('CC(C)(C)[C@H](NC(=O)C1Cc2ccccc2N1)C(=O)N1C[C@H]2[C@@H]([C@H]1C(=O)N[C@H](C#N)C[C@@H]1CCNC1=O)C2(C)C (some centres unmarked)', 'COVID-19 WT Mpro (Severe acute respiratory syndrome coronavirus 2)', 'log10(IC50)', 2.59),
  ('CC(C)(C)OC(=O)N1c2ccccc2CC1C(=O)N[C@H](C(=O)N1C[C@H]2[C@@H]([C@H]1C(=O)N[C@H](C#N)C[C@@H]1CCNC1=O)C2(C)C)C(C)(C)C (some centres unmarked)', 'COVID-19 WT Mpro (Severe acute respiratory syndrome coronavirus 2)', 'log10(IC50)', 2.79);

---

system: human coronavirus (HCoV) 229E; assay: microbe, parasite or virus in culture; format: cell-based, human coronavirus 229E; conditions: unidentified human coronavirus, 72 h, MRCS cells, HCoV 229E, 3 days, CellTiter Glo; read-out: 229E CPE EC50
pEC50: −log10 of the molar value.
quantity: pEC50

INSERT INTO assay_data (compound, readoutqualifier, observedvalue) VALUES
  ('CC(C)(C)[C@H](NC(=O)c1ccccn1)C(=O)N1C[C@H]2[C@@H]([C@H]1C(=O)N[C@H](C#N)C[C@@H]1CCNC1=O)C2(C)C [Compound 107]', '=', 4.63),
  ('CC(C)(C)[C@H](NS(=O)(=O)c1sccc1Cl)C(=O)N1C[C@H]2[C@@H]([C@H]1C(=O)N[C@H](C#N)C[C@@H]1CCNC1=O)C2(C)C [Compound 114]', '=', 7.17),
  ('CC(C)c1cc(C(C)C)c(S(=O)(=O)N[C@H](C(=O)N2C[C@H]3[C@@H]([C@H]2C(=O)N[C@H](C#N)C[C@@H]2CCNC2=O)C3(C)C)C(C)(C)C)c(C(C)C)c1 [Compound 134]', '<', 4.52),
  ('CC(C#N)C(=O)N[C@H](C(=O)N1C[C@H]2[C@@H]([C@H]1C(=O)N[C@H](C#N)C[C@@H]1CCNC1=O)C2(C)C)C(C)(C)C (some centres unmarked) [Compound 88]', '=', 5.60),
  ('CC(C)NC(=S)N[C@H](C(=O)N1C[C@H]2[C@@H]([C@H]1C(=O)N[C@H](C#N)C[C@@H]1CCNC1=O)C2(C)C)C(C)(C)C [Compound 73]', '=', 5.88),
  ('CC(C)(C)[C@H](NS(=O)(=O)c1ccc2ccccc2c1)C(=O)N1C[C@H]2[C@@H]([C@H]1C(=O)N[C@H](C#N)C[C@@H]1CCNC1=O)C2(C)C [Compound 102]', '=', 7.08),
  ('CC(C)(C)OC(=O)N1[C@@H](C(=O)N[C@H](C(=O)N2C[C@H]3[C@@H]([C@H]2C(=O)N[C@H](C#N)C[C@@H]2CCNC2=O)C3(C)C)C(C)(C)C)C[C@H]2CCCC[C@H]21 [Compound 37]', '<', 4.52),
  ('CC(C)(C)[C@H](NC(=S)NC1CCC1)C(=O)N1C[C@H]2[C@@H]([C@H]1C(=O)N[C@H](C#N)C[C@@H]1CCN(C(=O)C(F)(F)F)C1=O)C2(C)C [Compound 125]', '=', 6.15),
  ('CN(C(=O)OC(C)(C)C)C(C)(C)C(=O)N[C@H](C(=O)N1C[C@H]2[C@@H]([C@H]1C(=O)N[C@H](C#N)C[C@@H]1CCNC1=O)C2(C)C)C(C)(C)C [Compound 38]', '<', 4.52),
  ('Cc1ccc(S(=O)(=O)N[C@H](C(=O)N2C[C@H]3[C@@H]([C@H]2C(=O)N[C@H](C#N)C[C@@H]2CCNC2=O)C3(C)C)C(C)(C)C)cc1 [Compound 96]', '=', 6.61),
  ('CC(C)(C)[C@H](NC(=O)[C@@H](NC(=O)c1cnccn1)C1CCCCC1)C(=O)N1C[C@H]2[C@@H]([C@H]1C(=O)N[C@H](C#N)C[C@@H]1CCNC1=O)C2(C)C [Compound 13]', '=', 5.01),
  ('CC(C)(C)[C@H](NC(=O)c1cn2ccccc2n1)C(=O)N1C[C@H]2[C@@H]([C@H]1C(=O)N[C@H](C#N)C[C@@H]1CCNC1=O)C2(C)C [Compound 31]', '<', 4.52),
  ('COc1ccc(S(=O)(=O)N(C)[C@H](C(=O)N2C[C@H]3[C@@H]([C@H]2C(=O)N[C@H](C#N)C[C@@H]2CCNC2=O)C3(C)C)C(C)(C)C)cc1 [Compound 137]', '=', 5.31),
  ('CC(C)(C)OC(=O)N1C2CCC1CC(C(=O)N[C@H](C(=O)N1C[C@H]3[C@@H]([C@H]1C(=O)N[C@H](C#N)C[C@@H]1CCNC1=O)C3(C)C)C(C)(C)C)C2 (some centres unmarked) [Compound 17]', '=', 5.10),
  ('CC(C)(C)[C@H](NC(=O)c1ccc2c(c1)CCC2)C(=O)N1C[C@H]2[C@@H]([C@H]1C(=O)N[C@H](C#N)C[C@@H]1CCNC1=O)C2(C)C [Compound 120]', '=', 5.33),
  ('COC(=O)NS(=O)(=O)N[C@H](C(=O)N1C[C@H]2[C@@H]([C@H]1C(=O)N[C@H](C#N)C[C@@H]1CCNC1=O)C2(C)C)C(C)(C)C [Compound 97]', '<', 4.52),
  ('CC(C)(C)[C@H](NC(=O)C12CC(C1)C2)C(=O)N1C[C@H]2[C@@H]([C@H]1C(=O)N[C@H](C#N)C[C@@H]1CCNC1=O)C2(C)C [Compound 20]', '=', 5.56),
  ('CC(C)(C)[C@H](NC(=O)CCC(F)(F)F)C(=O)N1C[C@H]2[C@@H]([C@H]1C(=O)N[C@H](C#N)C[C@@H]1CCNC1=O)C2(C)C [Compound 138]', '=', 6.21),
  ('CC1(NC(=S)N[C@H](C(=O)N2C[C@H]3[C@@H]([C@H]2C(=O)N[C@H](C#N)C[C@@H]2CCNC2=O)C3(C)C)C(C)(C)C)CC1 [Compound 126]', '=', 6.71),
  ('Cc1cc(S(=O)(=O)N[C@H](C(=O)N2C[C@H]3[C@@H]([C@H]2C(=O)N[C@H](C#N)C[C@@H]2CCNC2=O)C3(C)C)C(C)(C)C)sc1Cl [Compound 168]', '=', 6.94);

---

tested on: human coronavirus (HCoV) 229E; test: microbe, parasite or virus in culture; assay type: cell-based, human coronavirus 229E; settings: unidentified human coronavirus, 72 h, MRCS cells, HCoV 229E, 3 days, CellTiter Glo; read-out: 229E CPE EC50
pEC50: −log10 of the molar value.
quantity: pEC50

INSERT INTO measurements (inputsmiles, quantity, observedvalue) VALUES
  ('CC(C)(C)[C@H](NC(=O)C(F)(F)Cl)C(=O)N1C[C@H]2[C@@H]([C@H]1C(=O)N[C@H](C#N)C[C@@H]1CCNC1=O)C2(C)C', 'pEC50', 7.17),
  ('CC(C)(C)[C@H](NC(=O)c1ccc(F)c(F)c1)C(=O)N1C[C@H]2[C@@H]([C@H]1C(=O)N[C@H](C#N)C[C@@H]1CCNC1=O)C2(C)C', 'pEC50', 5.41),
  ('CC(C)(C)[C@H](NS(=O)(=O)c1ccc(F)cc1)C(=O)N1C[C@H]2[C@@H]([C@H]1C(=O)N[C@H](C#N)C[C@@H]1CCNC1=O)C2(C)C', 'pEC50', 6.58);
